- experimental-target: Transcription intermediary factor 1-alpha (Homo sapiens) (UniProt O15164)
- Sequence (O15164 whole entry): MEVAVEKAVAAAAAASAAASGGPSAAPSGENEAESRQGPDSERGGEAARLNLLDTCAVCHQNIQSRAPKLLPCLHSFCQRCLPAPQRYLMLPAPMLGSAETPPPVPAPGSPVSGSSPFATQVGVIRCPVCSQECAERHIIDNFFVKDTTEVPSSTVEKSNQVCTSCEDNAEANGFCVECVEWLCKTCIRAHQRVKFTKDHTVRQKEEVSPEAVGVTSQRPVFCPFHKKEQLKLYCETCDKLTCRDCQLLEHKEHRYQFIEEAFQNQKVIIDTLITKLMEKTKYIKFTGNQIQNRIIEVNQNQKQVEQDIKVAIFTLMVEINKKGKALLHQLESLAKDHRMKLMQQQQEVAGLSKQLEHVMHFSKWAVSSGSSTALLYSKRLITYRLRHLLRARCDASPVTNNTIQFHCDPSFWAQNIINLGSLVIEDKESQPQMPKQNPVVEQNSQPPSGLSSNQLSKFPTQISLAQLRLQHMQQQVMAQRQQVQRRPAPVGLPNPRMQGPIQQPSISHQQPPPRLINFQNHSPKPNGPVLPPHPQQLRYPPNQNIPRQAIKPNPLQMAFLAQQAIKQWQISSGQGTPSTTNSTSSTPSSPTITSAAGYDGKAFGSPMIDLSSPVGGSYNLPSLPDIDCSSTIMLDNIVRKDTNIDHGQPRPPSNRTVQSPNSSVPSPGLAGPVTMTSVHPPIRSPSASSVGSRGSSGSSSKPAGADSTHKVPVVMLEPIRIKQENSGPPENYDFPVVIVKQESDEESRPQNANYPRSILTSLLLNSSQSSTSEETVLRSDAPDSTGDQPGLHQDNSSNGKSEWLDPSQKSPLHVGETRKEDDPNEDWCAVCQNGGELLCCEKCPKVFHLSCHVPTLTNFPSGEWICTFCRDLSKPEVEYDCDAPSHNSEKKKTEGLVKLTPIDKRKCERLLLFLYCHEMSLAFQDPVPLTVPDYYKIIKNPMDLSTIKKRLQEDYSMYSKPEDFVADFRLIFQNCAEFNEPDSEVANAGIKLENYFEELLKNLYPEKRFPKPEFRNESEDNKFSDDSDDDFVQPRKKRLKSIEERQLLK
- cond: Compound concentration 20.0 uM
Non-standard residues stand in square brackets, D forms with d. Residues, ends and D or L forms follow the SMILES beside them. *: point of attachment. Benzoyl(4-OPh) = O=C(c1ccc(Oc2ccccc2)cc1)*; Lys(Et2) = CCN(CC)CCCC[C@H](N)C(=O)O; d(aIle) = CC[C@H](C)[C@@H](N)C(=O)O; Gly(cPent) = N[C@H](C(=O)O)C1CCCC1; NH(propargyl) = C#CCN*
Hi there, I'd appreciate the recorded ΔTm for every entry that follows.
Quick reminder: number only, in °C, skip the unit.

Summary for this compound, CC(=O)Nc1ccc(OC[C@](C)(O)C(=O)Nc2ccc([N+](=O)[O-])c(C(F)(F)F)c2)cc1 : ΔTm is 0.02

Summary for this compound, Nc1cc2c3c(c1)C(c1ccccc1)=N[C@@H](NC(=O)c1cccnc1)C(=O)N3CC2 : ΔTm is -0.79

Summary for this compound, C#CCNC(=O)[C@H](CO)NC(=O)[C@H](CCCCN(CC)CC)NC(=O)[C@H](NC(=O)[C@@H](NC(=O)c1ccc(Oc2ccccc2)cc1)C1CCCC1)[C@@H](C)CC ({Benzoyl(4-OPh)}-[Gly(cPent)][d(aIle)][Lys(Et2)]S-{NH(propargyl)}) : ΔTm is -3.76
